Attribute: EC50
Assay comment: growth suppression of beta-catenin-knockout colon cells, dose response, cell-based, HCT116, human colon tumor (AID 1045);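 also: HCT116 colon tumor cells with beta catenin knocked out; cells exposed to compound for 60 hours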
Type: functional
Active and inactive are the calls of the source. No rule for the calls is given here.

O=C(N/N=C\c1ccc(CNS(=O)(=O)c2ccc(Cl)cc2)o1)C(=O)Nc1ccc(Oc2ccccc2)cc1 ... 11.1 µM (active)
CCOC(=O)C1=C(c2ccccc2)N=c2s/c(=C\c3cccc(O)c3)c(=O)n2C1c1cccs1 (stereo not given) ... 15.1 µM (active)
O=C(Nc1ccccc1F)C(=Cc1sc(N2CCOCC2)nc1-c1ccccc1)C(=O)Nc1ccccc1F ... 9.63 µM (active)
CC[n+]1c(/C=C2\C=C(C)CC(C)(C)C2)sc2ccccc21 ... 9.81 µM (active)

Next compound, please.
Q: # query: EC50 of entry CC(Nc1nc(N2CCCC2)nc2ccccc12)c1ccccc1 (stereo not given)
Result: 4.31 µM (active)
